target: Vascular endothelial growth factor receptor 2 (Homo sapiens, UniProt P35968)
Sequence (P35968 whole entry): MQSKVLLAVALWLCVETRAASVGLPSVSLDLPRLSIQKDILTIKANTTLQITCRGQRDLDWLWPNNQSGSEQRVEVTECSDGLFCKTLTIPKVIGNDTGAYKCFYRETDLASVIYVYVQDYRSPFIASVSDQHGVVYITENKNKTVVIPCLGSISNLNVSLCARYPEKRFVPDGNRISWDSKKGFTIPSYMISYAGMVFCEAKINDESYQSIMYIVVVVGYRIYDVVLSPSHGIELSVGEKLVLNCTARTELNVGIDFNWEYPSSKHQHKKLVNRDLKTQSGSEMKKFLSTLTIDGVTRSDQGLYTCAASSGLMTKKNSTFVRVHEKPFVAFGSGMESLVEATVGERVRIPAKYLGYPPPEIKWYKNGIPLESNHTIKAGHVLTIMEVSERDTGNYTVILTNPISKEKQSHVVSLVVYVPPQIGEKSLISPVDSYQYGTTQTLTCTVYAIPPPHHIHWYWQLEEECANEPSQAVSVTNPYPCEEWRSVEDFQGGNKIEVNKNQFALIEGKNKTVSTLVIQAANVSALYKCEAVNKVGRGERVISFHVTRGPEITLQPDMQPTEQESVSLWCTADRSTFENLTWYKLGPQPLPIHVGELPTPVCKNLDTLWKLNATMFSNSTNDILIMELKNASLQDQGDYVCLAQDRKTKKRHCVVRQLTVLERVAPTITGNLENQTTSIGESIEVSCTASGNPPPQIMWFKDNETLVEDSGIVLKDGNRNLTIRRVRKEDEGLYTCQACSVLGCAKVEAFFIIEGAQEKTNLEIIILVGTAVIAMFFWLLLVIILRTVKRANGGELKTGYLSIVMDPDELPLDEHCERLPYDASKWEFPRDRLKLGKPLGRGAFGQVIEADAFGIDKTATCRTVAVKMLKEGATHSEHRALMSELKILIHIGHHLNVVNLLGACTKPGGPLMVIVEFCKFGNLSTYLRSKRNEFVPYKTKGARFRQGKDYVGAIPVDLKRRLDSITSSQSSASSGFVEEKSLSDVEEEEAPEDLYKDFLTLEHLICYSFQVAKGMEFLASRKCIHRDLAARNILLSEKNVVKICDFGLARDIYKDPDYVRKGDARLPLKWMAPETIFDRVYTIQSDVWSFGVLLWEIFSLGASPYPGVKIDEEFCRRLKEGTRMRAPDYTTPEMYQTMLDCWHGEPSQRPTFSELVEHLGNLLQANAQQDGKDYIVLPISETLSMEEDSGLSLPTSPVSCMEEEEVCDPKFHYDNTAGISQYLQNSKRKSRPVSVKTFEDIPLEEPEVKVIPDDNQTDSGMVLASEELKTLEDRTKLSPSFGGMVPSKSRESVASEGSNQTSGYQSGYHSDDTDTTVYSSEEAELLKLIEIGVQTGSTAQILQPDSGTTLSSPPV
pIC50: −log10 of the molar value.

# Smi, Study system, pIC50
records = [
    ("Cc1cc(Nc2ncc(C(=O)Nc3c(C)cccc3Cl)s2)nc(C)n1", "Vascular endothelial growth factor receptor 2 (Homo sapiens, UniProt P35968)", "< 5.00"),
]

* * *

experiment: Time required to reach the maximum plasma concentration was determined in rats at a single dose of 10 mg/kg i.v. and p.o.; type: ADME, organism-based; parameters: dose 10 mg/kg, route oral; conditions: rat, po
Measured metric: Tmax (h)

# Smi, Measured metric, Readout number
rows = [
    ("Cc1cc(Nc2ncc(C(=O)Nc3c(C)cccc3Cl)s2)nc(C)n1", "Tmax", 1),
]
